Field pIC50: reported value for Protein kinase C theta type (Homo sapiens, UniProt Q04759); entries drawn from several documents.
pIC50: −log10 of the molar value.
Kindly return class 1 if reported pIC50 is no lower than 7; return class 0 if it is lower.

Query :: Given `N#Cc1cnc2sc(-c3cccc(CN4CCCCC4)c3)cc2c1Nc1ccc2[nH]ccc2c1` , state whether its pIC50 is at least 7.
Result :: class 0

Query :: Given `Cc1c(Nc2c(C#N)cnc3sc(-c4cccc(S(N)(=O)=O)c4)c(C)c23)ccc2[nH]ccc12` , state whether its pIC50 is at least 7.
Result :: class 1

Query :: Given `COc1ccccc1-c1c(C)ncc(C#N)c1Nc1ccc2[nH]ccc2c1` , state whether its pIC50 is at least 7.
Result :: class 0

Query :: Given `Cc1ncc(C#N)c(Nc2ccc3[nH]ccc3c2C)c1-c1ccc(OCCN2CCN(CCN(C)C)CC2)cc1` , state whether its pIC50 is at least 7.
Result :: class 1

Query :: Given `CN1C(C)(C)CC(Nc2nc(Nc3ccc(N4CCCC4)c(C#N)c3)ncc2F)CC1(C)C` , state whether its pIC50 is at least 7.
Result :: class 1

Query :: Given `COc1cccc(-c2cncc(C#N)c2Nc2ccc(C#N)cc2)c1` , state whether its pIC50 is at least 7.
Result :: class 0

Query :: Given `COc1ccc(-c2cncc(C#N)c2Nc2cccc(OC[C@@H](N)Cc3ccccc3)c2)cc1OC` , state whether its pIC50 is at least 7.
Result :: class 0

Query :: Given `O=C1NC(=O)C(c2c[nH]c3sccc23)=C1c1nc(N2CCn3cncc3C2)nc2ccccc12` , state whether its pIC50 is at least 7.
Result :: class 1

Query :: Given `Cc1ncc(C#N)c(Nc2ccc3[nH]ccc3c2C)c1-c1ccc(OCCNCCO)cc1` , state whether its pIC50 is at least 7.
Result :: class 1

Query :: Given `Cc1c(Nc2c(C#N)cnc3sc(-c4cccc(OC[C@@H](O)CO)c4)cc23)ccc2[nH]ccc12` , state whether its pIC50 is at least 7.
Result :: class 1

Query :: Given `N#Cc1cnc2sc(-c3ccc(CN4CCOCC4)cc3)cc2c1Nc1cccc2[nH]ccc12` , state whether its pIC50 is at least 7.
Result :: class 0

Query :: Given `COc1cccc(-c2cncc(C#N)c2Nc2cccc([N+](=O)[O-])c2)c1` , state whether its pIC50 is at least 7.
Result :: class 0

Query :: Given `COc1cc2c(cc1OCCN1CCCC1)ncc1c(N)nc(-n3ccnc3)cc12` , state whether its pIC50 is at least 7.
Result :: class 0

Query :: Given `Cc1c(Nc2c(C#N)cnc3sc(/C=C/CN4CCN(C)CC4)cc23)ccc2[nH]ccc12` , state whether its pIC50 is at least 7.
Result :: class 1

Query :: Given `COc1ccc(C(C)C)cc1-c1cnc2[nH]c(=O)n(CC(C)(C)C)c2n1` , state whether its pIC50 is at least 7.
Result :: class 0
